Origin of the recorded values: patent US20180134769A1

target: T1, Clostridium difficile toxin A (TcdA) (Clostridium difficile strain 10463, UniProt P16154 1-2710); assay: SPR (BIACORE 3000); 10,287 RUs of TcdA immobilized, VHH injected
T1 construct: range 1-2710
T1 sequence (P16154 whole entry): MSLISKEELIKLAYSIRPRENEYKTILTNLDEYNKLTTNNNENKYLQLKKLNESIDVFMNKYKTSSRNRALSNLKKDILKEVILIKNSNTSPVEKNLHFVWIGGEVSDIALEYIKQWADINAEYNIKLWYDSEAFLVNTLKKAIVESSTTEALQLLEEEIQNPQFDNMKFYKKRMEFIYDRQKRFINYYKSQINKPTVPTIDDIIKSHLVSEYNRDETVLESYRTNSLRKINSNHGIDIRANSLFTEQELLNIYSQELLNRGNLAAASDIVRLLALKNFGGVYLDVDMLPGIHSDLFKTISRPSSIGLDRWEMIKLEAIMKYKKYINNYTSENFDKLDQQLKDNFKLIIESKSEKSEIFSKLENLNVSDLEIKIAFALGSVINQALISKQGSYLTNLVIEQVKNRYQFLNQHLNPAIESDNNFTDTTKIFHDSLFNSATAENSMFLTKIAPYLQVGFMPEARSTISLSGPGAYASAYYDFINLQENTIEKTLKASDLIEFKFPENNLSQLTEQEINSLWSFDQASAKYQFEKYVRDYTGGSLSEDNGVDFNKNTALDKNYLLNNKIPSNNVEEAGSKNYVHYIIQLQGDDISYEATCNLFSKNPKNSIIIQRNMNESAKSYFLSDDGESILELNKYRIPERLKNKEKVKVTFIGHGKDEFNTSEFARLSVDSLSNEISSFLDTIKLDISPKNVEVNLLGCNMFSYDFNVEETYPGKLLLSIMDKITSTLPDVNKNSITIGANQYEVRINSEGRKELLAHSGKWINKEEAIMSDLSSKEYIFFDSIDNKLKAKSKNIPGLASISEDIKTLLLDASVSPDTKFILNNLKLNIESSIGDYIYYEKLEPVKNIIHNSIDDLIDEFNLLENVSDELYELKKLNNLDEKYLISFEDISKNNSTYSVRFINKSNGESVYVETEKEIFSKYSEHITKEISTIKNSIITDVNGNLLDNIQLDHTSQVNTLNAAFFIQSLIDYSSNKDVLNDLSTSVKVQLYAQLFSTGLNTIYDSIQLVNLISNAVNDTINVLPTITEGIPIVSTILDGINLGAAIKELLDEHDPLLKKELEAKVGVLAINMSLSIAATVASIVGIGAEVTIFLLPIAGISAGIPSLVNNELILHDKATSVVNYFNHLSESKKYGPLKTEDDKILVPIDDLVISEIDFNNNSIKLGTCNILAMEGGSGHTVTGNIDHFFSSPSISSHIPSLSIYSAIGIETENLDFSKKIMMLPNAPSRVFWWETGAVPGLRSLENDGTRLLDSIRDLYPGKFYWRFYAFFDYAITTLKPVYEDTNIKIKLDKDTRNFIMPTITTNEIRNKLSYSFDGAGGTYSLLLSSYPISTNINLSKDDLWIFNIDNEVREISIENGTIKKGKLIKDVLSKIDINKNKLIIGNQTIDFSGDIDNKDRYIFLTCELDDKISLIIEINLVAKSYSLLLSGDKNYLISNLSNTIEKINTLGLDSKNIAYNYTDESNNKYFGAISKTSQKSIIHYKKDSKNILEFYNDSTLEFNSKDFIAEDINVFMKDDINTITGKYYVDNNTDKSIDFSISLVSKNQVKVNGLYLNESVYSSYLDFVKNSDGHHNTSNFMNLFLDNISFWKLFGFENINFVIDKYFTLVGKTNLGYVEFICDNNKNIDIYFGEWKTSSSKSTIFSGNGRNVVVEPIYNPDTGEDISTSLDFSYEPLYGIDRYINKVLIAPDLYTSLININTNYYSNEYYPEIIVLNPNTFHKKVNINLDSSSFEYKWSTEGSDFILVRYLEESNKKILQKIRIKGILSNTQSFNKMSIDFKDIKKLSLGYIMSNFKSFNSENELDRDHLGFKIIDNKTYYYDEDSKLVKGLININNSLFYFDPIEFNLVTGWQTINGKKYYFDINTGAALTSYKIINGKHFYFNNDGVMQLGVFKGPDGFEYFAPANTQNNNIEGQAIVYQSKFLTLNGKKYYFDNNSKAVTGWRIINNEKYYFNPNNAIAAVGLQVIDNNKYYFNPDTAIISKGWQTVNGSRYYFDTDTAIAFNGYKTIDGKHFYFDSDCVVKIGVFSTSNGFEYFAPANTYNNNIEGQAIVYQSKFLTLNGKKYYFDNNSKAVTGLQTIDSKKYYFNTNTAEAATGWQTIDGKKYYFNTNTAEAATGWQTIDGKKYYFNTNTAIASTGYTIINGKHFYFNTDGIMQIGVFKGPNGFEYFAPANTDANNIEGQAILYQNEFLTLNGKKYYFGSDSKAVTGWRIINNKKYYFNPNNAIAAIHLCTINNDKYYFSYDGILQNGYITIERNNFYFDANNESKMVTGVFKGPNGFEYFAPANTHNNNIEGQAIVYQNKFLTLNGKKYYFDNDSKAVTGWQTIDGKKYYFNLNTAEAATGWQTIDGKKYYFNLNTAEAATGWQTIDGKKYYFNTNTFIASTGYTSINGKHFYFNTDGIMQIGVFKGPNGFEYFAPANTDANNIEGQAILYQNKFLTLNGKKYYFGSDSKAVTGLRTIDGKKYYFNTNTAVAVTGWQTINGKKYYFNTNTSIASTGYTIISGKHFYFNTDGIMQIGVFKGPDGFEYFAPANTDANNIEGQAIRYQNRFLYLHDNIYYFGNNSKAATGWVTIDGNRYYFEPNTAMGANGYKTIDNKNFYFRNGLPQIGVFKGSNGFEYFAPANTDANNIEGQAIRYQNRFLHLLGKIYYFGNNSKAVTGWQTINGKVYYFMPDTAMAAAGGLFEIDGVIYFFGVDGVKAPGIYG

- binder: "A4.2m (VHH, also called mutant A4.2; disulfide mutant of A4.2) VHH: QVKLEESGGGLVQAGGSLRLSCAASGRTFNTLSMGWFRQAPGKEREFVCAVSRSGGSTYYADSVKGRFTCSRDNAKNTVYLQMNSLKPEDTAVYYCAAAATKSNTTAYRLSFDYWGQGTQVTVSS"
  measurement_units: "s⁻¹"
  koff: 0.019
- binder: "A26.8m (VHH, also called mutant A26.8; disulfide mutant of A26.8) VHH: QVKLEESGGGLVQAGGSLRLSCAASERTFSRYPVAWFRQAPGAEREFVCVISSTGTSTYYADSVKGRFTCSRDNAKVTVYLQMNNLKREDTAVYFCAVNSQRTRLQDPNEYDYWGQGTQVTVSS"
  measurement_units: "s⁻¹"
  koff: 0.028
- binder: "A20.1m (VHH, also called mutant A20.1; disulfide mutant of A20.1) VHH: QVQLVESGGGLAQAGGSLRLSCAASGRTFSMDPMAWFRQPPGKEREFVCAGSSTGRTTYYADSVKGRFTCSRDNAKNTVYLQMNSLKPEDTAVYYCAAAPYGANWYRDEYAYWGQGTQVTVSS"
  measurement_units: "s⁻¹"
  koff: 0.0059
- binder: "A5.1m (VHH, also called mutant A5.1; disulfide mutant of A5.1) VHH: QVKLEESGGGLVQAGGSLRLSCAASGRTFSMYRMGWFRQAPGKEREFVCVITRNGSSTYYADSVKGRFTCSRDNAKNTVYLQMNSLKPEDTALYYCAATSGSSYLDAAHVYDYWGQGTQVTVSS"
  measurement_units: "s⁻¹"
  koff: 0.016
